System: E. coli ATCC 25922
ASSAY DETAILS: IHMA QC MIC
Format: cell-based
DETAILS: Escherichia coli, ATCC25922; read-out: MIC (QC, repeated tests)
The entries below are paired with their reported MIC.

Look over these answered cases.
                                   molecule      measured
0  C[C@@H](O)[C@H]1C(=O)N2C(C(=O)O)=C(S[C@@H]3CN[C@H](C(=O)N(C)C)C3)[C@H](C)[C@H]12  ≤ 0.06 µg/mL
1  C[C@@H](O)[C@H]1C(=O)N2C(C(=O)O)=C(SCCNC=N)C[C@H]12  ≤ 0.25 µg/mL
2  COc1c(N2C[C@@H]3CCCN[C@@H]3C2)c(F)cc2c(=O)c(C(=O)O)cn(C3CC3)c12   ≤ 0.5 µg/mL

Ask | Entry under review: CO/N=C(\C(=O)N[C@@H]1C(=O)N2C(C(=O)[O-])=C(C[N+]3(C)CCCC3)CS[C@H]12)c1csc(N)n1 [Cefepime, cefepime] . Reported MIC?
Reply | ≤ 0.25 µg/mL

Ask | Another molecule to look at: CN(C)c1cc(NC(=O)CNC(C)(C)C)c(O)c2c1C[C@H]1C[C@H]3[C@H](N(C)C)C(O)=C(C(N)=O)C(=O)[C@@]3(O)C(O)=C1C2=O
Reply | 0.12 µg/mL
